Test: qHTS assay to test for compound auto fluorescence at 460 nm (blue) in HepG2 cells (AID 720687); also: % is scaled to controls: 0 for no effect and ±100 for the full control effect
Settings: autofluorescence 405/460 nm, 1 h; series mostly up to 46 µM
The source made the active and inactive calls. Calls follow the shape of the dose curve; as a rule, active = well fitted curve in the direction sought with a large enough effect in the repeat runs; inconclusive = weak or mixed curves; inactive = flat fitted curve, though single readings scatter.
measured_property: outcome

compound	result
NC(N)=NCc1cccc(I)c1	inactive
NCCCC[C@H](NC(=O)[C@@H]1CCCN1C(=O)[C@@H]1CSSC[C@H](N)C(=O)N[C@@H](Cc2ccc(O)cc2)C(=O)N[C@@H](Cc2ccccc2)C(=O)N[C@@H](CCC(N)=O)C(=O)N[C@@H](CC(N)=O)C(=O)N1)C(=O)NCC(N)=O	inactive
C=C1C(CCl)(CCl)C2(Cl)C(Cl)C(Cl)C1(Cl)C2(Cl)Cl (configuration not stated)	inactive
C=CC(N)CCC(=O)O (configuration not stated)	inactive
CC(C)C[C@@H](NC(=O)[C@@H](O)[C@H](N)Cc1ccccc1)C(=O)O	inactive
O=C1CCC(c2ccccc2)(C2CCN(Cc3ccccc3)CC2)C(=O)N1 (configuration not stated)	inactive
CCc1cn([C@H]2C[C@H](O)[C@@H](CO)O2)c(=O)[nH]c1=O	inactive
CC(=O)Nc1ccc(OC(C)=O)cc1	inactive
OCC1(CO)COC(C(Cl)(Cl)Cl)OC1	inactive
O=P(O)(O)OP(=O)(O)OP(=O)(O)O	inactive
CC[C@@H](C(=O)[C@@H](C)[C@@H](O)[C@H](C)CCc1ccc(C)c(O)c1C(=O)O)[C@H]1O[C@](CC)([C@H]2CC[C@](O)(CC)[C@H](C)O2)C[C@@H]1C	inactive
Cc1cc(C(=O)NCCc2ccc(S(=O)(=O)NC(=O)NN3CCCCCC3)cc2)no1	inactive
Nc1c(CC(=O)O)cccc1C(=O)c1ccccc1	inactive
NCC1CCC(C(=O)O)CC1 (configuration not stated)	inactive
CC(=O)[C@]1(O)Cc2c(O)c3c(c(O)c2[C@@H](O[C@H]2C[C@H](N)[C@H](O)[C@H](C)O2)C1)C(=O)c1ccccc1C3=O	inactive
Cc1ccc(Cl)c(N)c1Cl	inactive
COC1=C(OC)C(=O)C(C/C=C(\C)CC/C=C(\C)CC/C=C(\C)CC/C=C(\C)CC/C=C(\C)CC/C=C(\C)CC/C=C(\C)CC/C=C(\C)CC/C=C(\C)CCC=C(C)C)=C(C)C1=O	inactive
N=C(N)n1cccn1	inactive
O=C(O)c1cc(O)c2c(c1)[C@H]([C@H]1c3cc(C(=O)O)cc(O)c3C(=O)c3c(O[C@@H]4O[C@H](CO)[C@@H](O)[C@H](O)[C@H]4O)cccc31)c1cccc(O[C@@H]3O[C@H](CO)[C@@H](O)[C@H](O)[C@H]3O)c1C2=O	inactive
CSCC[C@H](NC(=O)[C@H](Cc1ccc(OS(=O)(=O)O)cc1)NC(=O)[C@@H](N)CC(=O)O)C(=O)NCC(=O)N[C@@H](Cc1c[nH]c2ccccc12)C(=O)N[C@@H](CCSC)C(=O)N[C@@H](CC(=O)O)C(=O)N[C@@H](Cc1ccccc1)C(N)=O	inactive
CN[C@@H]1[C@@H](O[C@H]2O[C@H](CO)[C@@H](N)[C@H](O)[C@H]2O)O[C@H]2C[C@@H](N)[C@@H](O[C@H]3[C@H](O)[C@@H](O)[C@H](N)C[C@@H]3N)O[C@@H]2[C@@H]1O	inactive
c1ccc2occc2c1	inactive
CC(CNC(=O)c1cccnc1)NC(=O)c1cccnc1 (configuration not stated)	inactive
CCSCC	inactive
COC1[C@@H](O[C@@H]2O[C@H](C)[C@@H](O[C@H]3C[C@@](C)(O)[C@H](OC(=O)CC(C)C)[C@H](C)O3)[C@H](N(C)C)[C@H]2O)[C@@H](CC=O)C[C@@H](C)[C@@H](O)/C=C/C=C/C[C@@H](C)OC(=O)C[C@H]1OC(C)=O (some centres not stated)	inactive
CN1CCN(c2ccccc2/C=C2\SCCN(c3ccc(Cl)c(Cl)c3)C2=O)CC1	inactive
N=C(N)c1ccc(/C=C/c2ccc(C(=N)N)cc2O)cc1	inactive
O=C(O)[C@H]1CN(C/C=C/P(=O)(O)O)CCN1	inactive
CCCOC(=O)c1ccc(O)cc1	inactive
CON=C1C[C@]2(C[C@@H]3C[C@@H](C/C=C(\C)C[C@@H](C)/C=C/C=C4\CO[C@@H]5[C@H](O)C(C)=C[C@@H](C(=O)O3)[C@]45O)O2)O[C@H](/C(C)=C/C(C)C)[C@H]1C	inactive
C[C@H]1O[C@@H](O[C@H]2CC[C@@]3(C)[C@H](CC[C@@H]4[C@@H]3C[C@@H](O)[C@]3(C)[C@@H](C5=CC(=O)OC5)CC[C@]43O)C2)C[C@H](O)[C@@H]1O[C@H]1C[C@H](O)[C@H](O[C@H]2C[C@H](O)[C@H](O[C@@H]3O[C@H](CO)[C@@H](O)[C@H](O)[C@H]3O)[C@@H](C)O2)[C@@H](C)O1	inactive
CCC1OC(=O)C[C@@H](O)[C@H](C)[C@@H](O[C@@H]2O[C@H](C)C[C@H](N(C)C)[C@H]2O)[C@@H](CC=O)C[C@@H](C)C(=O)/C=C/[C@]2(C)OC2C1C (some centres not stated)	inactive

---

Test: qHTS assay to identify small molecule antagonists of the constitutive androstane receptor (CAR) signaling pathway - cell viability counter screen (AID 1224837); also: nearly all actives have a fitted effect of over 45% in size; also: potency is read from the fitted curve at half-maximal effect
Conditions: HepG2-CYP2B6-hCAR viability, CellTiter-Fluor, 23 h, co-treated with 50 nM CITCO; series mostly up to 92.4 µM
Results filed as inconclusive are left out. Active and inactive are the calls of the source. The call rests on the fitted dose curve; in most records, active means well fitted cell-killing curve with a large enough effect in the repeat runs; inconclusive means weak or mixed curves, or effect the other way; inactive means flat fitted curve, though single readings scatter.
measured_property: Potency

molecule	result
Cc1ccc(S(=O)(=O)C(I)I)cc1	34.4 µM (active)
CCOc1ccc([N+](=O)[O-])cc1	inactive
Oc1ccc(C2(c3ccc(O)c(C4CCCCC4)c3)CCCCC2)cc1C1CCCCC1	27.3 µM (active)
CCc1cccc(C)c1N(C(=O)CS(=O)(=O)O)C(C)COC (stereo not drawn)	inactive
O=C1OC(O)C(C(Cl)Cl)=C1Cl (stereo not drawn)	inactive
CCC(C)(C)c1ccc(CC(C)CN2C[C@@H](C)O[C@@H](C)C2)cc1 (stereo partly drawn)	inactive
CCCCCCCCCC[N+](C)(CCCCCCCCCC)CCC[Si](OC)(OC)OC	inactive
[Cl][Sc]([Cl])[Cl]	inactive
Oc1ccc(Cl)cc1C1CCCC1	inactive
COc1cc(OC)nc(NC(=O)NS(=O)(=O)Nc2ccccc2C(=O)N(C)C)n1	inactive
CC(Cc1ccc(O)c(O)c1)C(C)Cc1ccc(O)c(O)c1 (stereo not drawn)	inactive
N#Cc1ccc(C/C(=N/NC(=O)Nc2ccc(OC(F)(F)F)cc2)c2cccc(C(F)(F)F)c2)cc1	inactive
CC/C=C\C/C=C\C/C=C\CCCCCCCC(=O)OC	inactive
c1ccc2occc2c1	inactive
c1ccc(-c2ccccc2-c2ccccc2)cc1	inactive
Cc1cc(Br)ccc1NC(=O)CCl	54.5 µM (active)
CCc1cccc(C)c1N(C(=O)C(=O)O)C(C)COC (stereo not drawn)	inactive
C/C(=C\c1ccc(C(=O)O)cc1)c1ccc2c(c1)C(C)(C)CCC2(C)C	inactive
C=C(C)CCO	inactive
CCNc1nc(NC(C)(C)C)nc(OC)n1	inactive
CC(C)(C)c1cc(CCC(=O)OCCSCCOC(=O)CCc2cc(C(C)(C)C)c(O)c(C(C)(C)C)c2)cc(C(C)(C)C)c1O	inactive
Nc1c(Br)cc([N+](=O)[O-])cc1Br	inactive
CCOC(=O)[C@H](C)O	inactive
O=[N+]([O-])c1ccc(O)c2ncccc12	inactive
O=S(=O)(c1ccc(OCc2ccccc2)cc1)c1ccccc1O	inactive
CCOC=C(C(=O)OCC)C(=O)OCC	inactive
CC(C)(C)C1=CC(=O)C(C(C)(C)C)=CC1=O	inactive
CN1CCN(c2ccccc2/C=C2\SCCN(c3ccc(Cl)c(Cl)c3)C2=O)CC1	24.3 µM (active)

---

Assay: Caspase-3/7 induction in HepG2 cells by small molecules, qHTS cell viability counter screen (AID 1346981); also: % is scaled to controls: 0 for no effect and ±100 for the full control effect; nearly all actives have a fitted effect of over 30% in size
Settings: CellTiter-Fluor fluorescence, 17 h; series mostly up to 92.4 µM
Results filed as inconclusive are left out. Active and inactive are the calls of the source. Calls follow the shape of the dose curve; as a rule, active = well fitted cell-killing curve with a large enough effect in the repeat runs; inconclusive = weak or mixed curves, or effect the other way; inactive = flat fitted curve, though single readings scatter.
# activity change, negative = cytotoxicity values compiled below

query_smiles	activity change, negative = cytotoxicity
COc1cc2ncnc(Nc3cccc(Cl)c3)c2cc1OC	-10% [at 19 µM] (inactive)
CCCCCCCCCCCCS(=O)(=O)Cl	3.84% [at 19 µM] (inactive)
COc1cc(C(C)C)ccc1C	-0.801% [at 19 µM] (inactive)
C=C[Si](C)(C)Cl	-0.712% [at 8.39 µM] (inactive)

---

Assay: qHTS assay for small molecule disruptors of the mitochondrial membrane potential (AID 720635)
Details: HepG2 mitochondrial membrane potential, Mito-MPS dye ratio; series mostly up to 83.2 µM
Source text: U.S. Tox21 Program National Center for Advancing Translational Sciences [NCATS] NIH Chemical Genomics Center [NCGC] U.S. Environmental Protection Agency [EPA] National Institutes of Environmental Health Sciences [NIEHS] National Toxicology Program [NTP] U.S. Food and Drug Administration [FDA] […] The dye accumulates in the mitochondria of healthy cells as aggregates, with red fluorescence. […]
Inconclusive results are not listed. Calls of active or inactive are those of the source. Calls come from the whole dose curve; as a rule, active = well fitted inhibition curve with a large enough effect in the signal ratio in the repeat runs; inconclusive = weak or mixed curves, or effect the other way; inactive = flat fitted curve, though single readings scatter; the % refers to the signal ratio.
Possible outcomes: active, inactive

compound	assigned_label
CO[C@H]1C[C@H](O[C@H]2[C@H](C)[C@@H](O[C@@H]3O[C@H](C)C[C@H](N(C)C)[C@H]3O)[C@@H](C)C[C@]3(CO3)C(=O)[C@H](C)[C@@H](O)[C@@H](C)[C@@H](C)OC(=O)[C@@H]2C)O[C@@H](C)[C@@H]1O	inactive
CC(=O)NC[C@H]1CN(c2ccc(N3CCOCC3)c(F)c2)C(=O)O1	inactive
CCN(CC)CCOC[C@H]1O[C@@H](O)[C@H](OCCN(CC)CC)[C@@H](O)[C@@H]1O	inactive
CCN(CC)CCn1c(=O)c(Cc2ccc(OC)cc2)nc2ccccc21	inactive
CCCCC/C=C\C=C\C(=O)OCC	active
CC(C)(COP(=O)(O)OP(=O)(O)OC[C@H]1O[C@@H](n2cnc3c(N)ncnc32)[C@H](O)[C@@H]1OP(=O)(O)O)C(O)C(=O)NCCC(=O)NCCS (some centres undefined)	inactive
CCC(C)(C)c1ccc(CC(C)CN2C[C@@H](C)O[C@@H](C)C2)cc1 (some centres undefined)	active
CO/N=C(\C(=O)N[C@@H]1C(=O)N2C(C(=O)[O-])=C(C[n+]3ccc(N)n3CCO)CS[C@H]12)c1csc(N)n1	inactive
O=P(O)(O)OP(=O)(O)OP(=O)(O)O	inactive
